- assayedTarget: T1, formyl peptide receptor (UniProt P21462 1-350, limits assumed)
- T1 sequence (looked up): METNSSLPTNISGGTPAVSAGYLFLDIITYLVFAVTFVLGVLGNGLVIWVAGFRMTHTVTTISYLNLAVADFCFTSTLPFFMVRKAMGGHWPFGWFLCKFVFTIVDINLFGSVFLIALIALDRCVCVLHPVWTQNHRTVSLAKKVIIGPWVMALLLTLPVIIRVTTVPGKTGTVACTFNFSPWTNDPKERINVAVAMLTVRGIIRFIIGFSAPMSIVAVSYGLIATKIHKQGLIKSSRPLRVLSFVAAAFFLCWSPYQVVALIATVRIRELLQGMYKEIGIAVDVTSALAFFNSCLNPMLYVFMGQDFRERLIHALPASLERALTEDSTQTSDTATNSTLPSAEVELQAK
- experimentDescription: cell-based or functional assay
Where no end group is shown, it is not given here. [ ]: non-standard residue; d: D form.
endpointName: EC50 of intracellular calcium increase in FPR-expressing RBL-2H3 cells (fura-2) (nM)
State the answer as a number, implicitly in nM.

WKDMV[dM]-NH2 (N-terminus assumed; SMILES CSCC[C@H](NC(=O)[C@H](CC(=O)O)NC(=O)[C@H](CCCCN)NC(=O)[C@@H](N)Cc1c[nH]c2ccccc12)C(=O)N[C@H](C(=O)N[C@H](CCSC)C(N)=O)C(C)C) [Trp-Lys-Asp-Met-Val-D-Met-NH2] = 1330
YMV[dM]-NH2 [Tyr-Met-Val-D-Met-NH2] = 569

Please find the next binder below.
Report EC50 of intracellular calcium increase in FPR-expressing RBL-2H3 cells (fura-2) for WHYMV[dM]-NH2 (N-terminus assumed; SMILES CSCC[C@H](NC(=O)[C@H](Cc1ccc(O)cc1)NC(=O)[C@H](Cc1c[nH]cn1)NC(=O)[C@@H](N)Cc1c[nH]c2ccccc12)C(=O)N[C@H](C(=O)N[C@H](CCSC)C(N)=O)C(C)C) [Trp-His-Tyr-Met-Val-D-Met-NH2] please.
31.7
